molecular target: human MUC16 on cells (OVCAR-3, PEO1, 3T3/hβ2M/HLA-A2/NYESO1p/hMUC16) (human); experiment: flow cytometry ('FACS binding', MFI_PE) on cells, the same assay as the other two curves. The control's curve is flat at baseline, so this is a fit value without a response. The unit is taken from the axis, Log10 (M).
value.type: EC50 (nM)
Quick note: give the figure in nM, leave out the unit.

Exercise: Record request: EC50 value, item CD3-BINDING CONTROL (bispecific antibody)
Key: 2.27
